Assign Plat to each entry below.
# Species: Rattus norvegicus
# TEST: Open TG-GATES - Regimen: Single
# Assay type: toxicity, organism-based, Sprague-Dawley
# Design: regimen Single, gender Male, age 6 weeks
# EXPERIMENTAL CONDITIONS: in vivo, po, 100 mg/kg, 24 h, tissue Blood, route gavage, dose level Low
# output: bare number, implied unit x10_4/uL

For the compound "O=C(O)c1cc(/N=N/c2ccc(S(=O)(=O)Nc3ccccn3)cc2)ccc1O" , report Plat.
123

For the compound "C[C@H](CS)C(=O)N1CCC[C@H]1C(=O)O" , report Plat.
114.1

For the compound "Clc1ccccc1CN1CCc2sccc2C1" , report Plat.
124.9

For the compound CCc1cc(C(N)=S)ccn1 [ETHIONAMIDE] , report Plat.
117.2

For the compound "O=C(O)c1cn(C2CC2)c2cc(N3CCNCC3)c(F)cc2c1=O" , report Plat.
105.4
